Where these numbers come from: paper PMC6804162

Exercise: state measured SI AChE/BChE for each of the molecules provided.
target: butyrylcholinesterase (BChE) (Homo sapiens); test: biochemical; conditions: BChE selectivity index = IC50 (AChE)/IC50 (BChE)
Answers are plain numbers.

# per-item lookup of SI AChE/BChE; items listed below
1. CC(=O)OC[C@H]1O[C@@H](Oc2c(-c3ccccc3)oc3cc(F)c(I)cc3c2=O)[C@H](OC(C)=O)[C@@H](OC(C)=O)[C@@H]1OC(C)=O
2. CC(=O)OC[C@H]1O[C@@H](Oc2c(-c3ccc(Cl)cc3)oc3cc(F)c(I)cc3c2=O)[C@H](OC(C)=O)[C@@H](OC(C)=O)[C@@H]1OC(C)=O

[0.71, 0.80]

Working through the 3 molecules below one at a time, give SI AChE/BChE for each.
1. COc1ccc(-c2oc3cc(F)c(I)cc3c(=O)c2O[C@@H]2O[C@H](COC(C)=O)[C@@H](OC(C)=O)[C@H](OC(C)=O)[C@H]2OC(C)=O)cc1
2. COc1ccc(-c2oc3cc(Br)c(I)cc3c(=O)c2OC2OC(COC(C)=O)C(OC(C)=O)C(OC(C)=O)C2OC(C)=O)cc1 (stereo not shown)
3. CC(=O)OC[C@H]1O[C@@H](Oc2c(-c3ccc(F)cc3)oc3cc(Br)c(I)cc3c2=O)[C@H](OC(C)=O)[C@@H](OC(C)=O)[C@@H]1OC(C)=O

[3.13, 0.70, 0.76]

// for each molecule below, give its SI AChE/BChE
1. COc1cc2oc(-c3ccc(Cl)cc3)c(O[C@@H]3O[C@H](COC(C)=O)[C@@H](OC(C)=O)[C@H](OC(C)=O)[C@H]3OC(C)=O)c(=O)c2cc1I
2. CC(=O)OC[C@H]1O[C@@H](Oc2c(-c3ccc(F)cc3)oc3cc(F)c(I)cc3c2=O)[C@H](OC(C)=O)[C@@H](OC(C)=O)[C@@H]1OC(C)=O
3. COc1ccc(-c2oc3cc(Cl)c(I)cc3c(=O)c2O[C@@H]2O[C@H](COC(C)=O)[C@@H](OC(C)=O)[C@H](OC(C)=O)[C@H]2OC(C)=O)cc1
4. CC(=O)OCC1OC(Oc2c(-c3ccc(Cl)cc3)oc3cc(Br)c(I)cc3c2=O)C(OC(C)=O)C(OC(C)=O)C1OC(C)=O (stereo not shown)

1. 0.78
2. 1.3
3. 2.56
4. 0.17

The observed SI AChE/BChE for CC(=O)OCC1OC(Oc2c(-c3ccc(Cl)cc3)oc3cc(Cl)c(I)cc3c2=O)C(OC(C)=O)C(OC(C)=O)C1OC(C)=O (stereo not shown) when tested with butyrylcholinesterase (BChE) (Homo sapiens) stands at 4.35

###

biological target: butyrylcholinesterase (BChE) (Homo sapiens, UniProt P06276); experiment: biochemical; conditions: BChE selectivity index = IC50 (AChE)/IC50 (BChE)
Sequence (P06276 29-602): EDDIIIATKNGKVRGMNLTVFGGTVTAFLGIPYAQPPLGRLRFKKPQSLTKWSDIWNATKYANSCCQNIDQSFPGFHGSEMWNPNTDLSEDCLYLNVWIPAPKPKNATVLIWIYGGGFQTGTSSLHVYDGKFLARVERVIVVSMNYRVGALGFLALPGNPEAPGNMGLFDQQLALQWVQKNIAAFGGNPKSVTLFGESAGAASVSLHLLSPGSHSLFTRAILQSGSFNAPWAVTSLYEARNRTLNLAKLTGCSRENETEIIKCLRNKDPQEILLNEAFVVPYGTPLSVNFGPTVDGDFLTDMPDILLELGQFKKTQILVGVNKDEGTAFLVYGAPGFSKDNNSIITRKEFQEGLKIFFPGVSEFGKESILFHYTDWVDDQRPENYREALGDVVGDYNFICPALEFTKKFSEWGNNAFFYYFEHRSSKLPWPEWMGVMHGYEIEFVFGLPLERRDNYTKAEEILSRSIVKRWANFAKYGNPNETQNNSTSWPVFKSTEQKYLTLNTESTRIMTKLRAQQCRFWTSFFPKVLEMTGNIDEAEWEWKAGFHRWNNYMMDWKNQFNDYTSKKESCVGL
Please respond with 1.0 when measured SI AChE/BChE is strictly beneath 2, and with 0.0 in all other cases.

COc1ccc(-c2oc3cc(OC)c(I)cc3c(=O)c2OC2OC(COC(C)=O)C(OC(C)=O)C(OC(C)=O)C2OC(C)=O)cc1 (stereo not drawn); 1.0
CC(=O)OCC1OC(Oc2c(-c3ccccc3)oc3cc(Cl)c(I)cc3c2=O)C(OC(C)=O)C(OC(C)=O)C1OC(C)=O (stereo not drawn); 0.0

Moving on to another molecule below.
SI AChE/BChE under 2? Item: CC(=O)OC[C@H]1O[C@@H](Oc2c(-c3ccc(F)cc3)oc3cc(Cl)c(I)cc3c2=O)[C@H](OC(C)=O)[C@@H](OC(C)=O)[C@@H]1OC(C)=O
0.0

###

Please provide measured SI AChE/BChE for the entries that follow.
target: butyrylcholinesterase (BChE) (Homo sapiens); assay: biochemical; conditions: BChE selectivity index = IC50 (AChE)/IC50 (BChE)
Give bare numbers.

CC(=O)OC[C@H]1O[C@@H](Oc2c(-c3ccccc3)oc3cc(Br)c(I)cc3c2=O)[C@H](OC(C)=O)[C@@H](OC(C)=O)[C@@H]1OC(C)=O; 7.14

Need SI AChE/BChE for each of these molecules.
1. COc1cc2oc(-c3ccccc3)c(O[C@@H]3O[C@H](COC(C)=O)[C@@H](OC(C)=O)[C@H](OC(C)=O)[C@H]3OC(C)=O)c(=O)c2cc1I
2. COc1cc2oc(-c3ccc(F)cc3)c(OC3OC(COC(C)=O)C(OC(C)=O)C(OC(C)=O)C3OC(C)=O)c(=O)c2cc1I (stereo not drawn)

1: 1.89; 2: 0.18
